// provenance: ChEMBL document CHEMBL1201862

For each of the molecules below, state its GI50.
# Test system: HCT-116
# TEST_METHOD_NOTES: NCI tumour cell line growth inhibition, 48 h
Activity calls are given as the source filed them. Rule as the data show it: active = GI50 up to about 1.1 µM and inactive = higher.

Enquiry: Output GI50 of Cn1c(=O)c2nc(CCCc3ccc([N+](=O)[O-])cc3)[nH]c2n(C)c1=O
Return: > 100 µM (inactive)

Enquiry: Identify measured GI50 associated with C=C1C2CC(OC(C)=O)C3(C)C(c4ccoc4)OC(=O)[C@@H](O)[C@]13OC1C[C@H](OC(C)=O)C(C)(C)[C@H](C(O)C(=O)OC)[C@]12C (some centres undefined)
Return: > 100 µM (inactive)

Enquiry: Report GI50 for O=c1c(-c2ccccc2)nnc2n(Cc3ccccc3)c3ccccc3n12
Return: > 100 µM (inactive)

Enquiry: Give GI50 for CCCCNC(=S)Nc1nc(C(=O)NNS(=O)(=O)c2ccccc2)cs1
Return: 26.2 µM (inactive)

Enquiry: Note down GI50 recorded for COc1cc(/C=N/c2ccc(S(N)(=O)=O)cc2)cc(OC)c1
Return: 19.8 µM (inactive)

Enquiry: In one line, give reported GI50 of the entry O=Cc1ccccc1B(O)O .
Return: 43.2 µM (inactive)

Enquiry: Please give the documented GI50 of Cc1cc(NCCCCCCCCNc2cc(C)nc3cc(N(C)C)ccc23)c2ccc(N(C)C)cc2n1
Return: 3.4 µM (inactive)

Enquiry: Specify GI50 for Nc1ccc(S(=O)(=O)c2ccc(/N=[N+](\[O-])c3ccc(S(=O)(=O)c4ccc(N)cc4)cc3)cc2)cc1 and stop.
Return: 46.5 µM (inactive)

Enquiry: Consider the molecule c1ccc(C(OCCN2CC3CCC(C2)N3)c2ccccc2)cc1 . State its measured GI50.
Return: 40.4 µM (inactive)

Enquiry: Look up and report measured GI50 for this entry: Cc1ncc(CCl)c(CCl)c1O
Return: > 100 µM (inactive)

Enquiry: Annotate the molecule C=C(C)[C@H]1C[C@@H]2O[C@@](O)(/C(C)=C\C(=O)/C=C(/C)C[C@H]3OC(=O)[C@@]24O[C@H]34)[C@@H]1O with its measured GI50.
Return: > 100 µM (inactive)

Enquiry: Write down GI50 measured for item C/C(=N/N)c1ccc2[nH]c3c(C)cc([N+](=O)[O-])c(C)c3c2c1
Return: 4.09 µM (inactive)

Enquiry: Consider the molecule COc1ccc(/C=C2/C(C)=NN(c3cccc(Cl)c3)/C2=N/c2nc3ccccc3s2)cc1 . State its measured GI50.
Return: 19.2 µM (inactive)

Enquiry: Fill in GI50 for record OCCOCCN1CCN(CCCN2c3ccccc3Sc3ccc(C(F)(F)F)cc32)CC1
Return: 7.91 µM (inactive)

Enquiry: Please report the measured GI50 for c1ccc(CN2CCC(Nc3ccccc3)(c3nnnn3Cc3ccccc3)CC2)cc1
Return: 20.1 µM (inactive)

Enquiry: Look up GI50 of COC1=CC(=O)c2c(CCNC(=O)OCc3ccccc3)n[nH]c2C1=O and report it.
Return: 12.4 µM (inactive)

Enquiry: Tell me measured GI50 for CC(C)(C)C1CCN(C(=O)c2ccccc2)CC1 please.
Return: 53.8 µM (inactive)

Enquiry: Input Cc1cc(O)c2c3c1C(=O)Oc1c(CO)c(O)c(C(=O)O)c(c1O3)C=NN=Cc1c3c(c(CO)c(O)c1C(=O)O)OC(=O)c1c(C)cc(O)c(c1O3)C=NN=C2 , output reported GI50.
Return: > 100 µM (inactive)

Enquiry: For the molecule O=C(CC(=O)c1cccc([N+](=O)[O-])c1)C(=O)Nc1nc([N+](=O)[O-])cs1 , give its measured GI50 value.
Return: > 100 µM (inactive)
